# Lookup of reported growth keyed by entry
- Tested on: HS 578T breast
- assay_method_text: NCI-60 one-dose screen, 48 h (100 = growth as untreated, 0 = no growth, -100 = all killed)
- test_settings: 10 µM unless noted
- Method: Growth inhibition of the HS 578T human tumor cell line is measured as a screen for anti-cancer activity. Cells are grown in 96 well plates and exposed to the test compound for 48 hours. Compounds are tested at a single concentration, which is 10^-5 M for most compounds. The reported endpoint is percent growth (GI% or GIPRCNT), where numbers from 0 - 100% represent growth inhibition, and numbers from -100% - 0 represent cell death. For example, a value of 40 represents 60% growth inhibition. […]
The panel holds about 83,000 compounds, 20% with a hit somewhere; the sample as a whole holds those more often.
Just the number please, in %, no unit attached.

smiles	measured
CC[C@H](C)[C@H]1NC(=O)[C@@H]([C@H](O)C(C)C)NC(=O)[C@@H](C)N(C)C(=O)[C@H](C)N(C)C(=O)[C@H](CC(C)C)NC(=O)[C@H](CC(C)C)N(C)C(=O)[C@H](C)N(C)C1=O	5.82

Entry `C#C[C@]1(O)CC[C@H]2[C@@H]3CC=C4c5sc(Nc6ccc(OC)nc6)nc5CC[C@]4(C)[C@H]3CC[C@@]21C` , growth reported as 3.53

Record `Cc1cc(O)c2c(c1)C(=O)C(c1c(C)cc3c(c1O)C(=O)C=CC3=O)=CC2=O` , field growth: 102

###

- Test system: OVCAR-3 ovarian
- assay_method_text: NCI-60 one-dose screen, 48 h
- test_settings: 10 µM unless noted
The panel holds about 83,000 compounds, 20% with a hit somewhere; the sample as a whole holds those more often. Active and inactive are the calls of the source. How the source made its calls: active means growth percent below 10; inactive means the rest.
Bench note: report the call from T for active, F for inactive

> print(dat)
                                    compound  class.name
 1  IP(CCCCCCCCCCSc1n(Cc2ccc3ccccc3c2)c(-c2ccccc2)c(-c2ccccc2)[n+]1Cc1ccc2ccccc2c1)(c1ccccc1)(c1ccccc1)c1ccccc1           T
 2  C/C(=C(/C)C1CC1CCN(C(=O)c1ccc([N+](=O)[O-])cc1)S(=O)(=O)c1ccc(C)cc1)C1CCCCC1 (stereo not drawn)           F
 3  CCOc1c(C#N)c(Nc2ccc(S(N)(=O)=O)cc2)c(C#N)c2nnc(C)n12           F
 4  O=C(CN1C(=O)S/C(=C\c2ccccc2)C1=O)Nc1ccc(C(=O)/C=C/c2cc3ccccc3nc2Cl)cc1           F
 5  Oc1ccc(CSc2nnc(-c3ccc(Oc4ccccc4)cc3)o2)c2cccnc12           T
 6  Cc1ccc(/C=C/CC(=O)Nc2ccc(C(=O)Nc3ccc(F)cc3N)nc2)cn1           F
 7  CC(C)C[C@H]1C(=O)O[C@H](C(C)C)C(=O)N(C)[C@@H](C(C)C)C(=O)O[C@H](C(C)C)C(=O)N(C)[C@@H](C(C)C)C(=O)O[C@H](C(C)C)C(=O)N1C           F
 8  Cc1nn(-c2ccc(Cl)cc2)c(C)c1N=Nc1ccc2oc(=O)ccc2c1           F
 9  N#Cc1c(NC(=O)c2ccccc2C(F)(F)F)sc2c1CCC(=O)C2           T
10  O=C(/C=C/c1cn(-c2ccccc2)nc1-c1ccc(Cl)cc1)c1cc2ccccc2oc1=O           F

Next item in the queue.
Look up the recorded call for `NS(=O)(=O)c1ccc(Nc2nc(N/N=C/c3ccc(F)cc3)nc(Nc3ccccc3)n2)cc1` in this test. F

###

Let's look at some compounds and their measured growth.
- System: K-562 leukemia
- assay_method_text: NCI-60 one-dose screen, 48 h (100 = growth as untreated, 0 = no growth, -100 = all killed)
- test_settings: 10 µM unless noted
About 83,000 compounds went through this panel and 20% of them were active in at least one assay; those are over-represented in the sample as a whole. Active and inactive are the calls of the source. Rule for the calls: active = growth percent below 10; inactive = the rest.

Lab note: measured growth of `CC(=O)NC(C)(C)C(=O)N1CCC[C@H]1C(=O)NC(C)(C)C(=O)N[C@@H](C)C(=O)NC(C)(C)C(=O)N[C@@H](C)C(=O)N[C@@H](CCC(N)=O)C(=O)NC(C)(C)C(=O)N[C@H](C(=O)NC(C)(C)C(=O)NCC(=O)N[C@@H](CC(C)C)C(=O)NC(C)(C)C(=O)N1CCC[C@H]1C(=O)N[C@H](C(=O)NC(C)(C)C(=O)NC(C)(C)C(=O)N[C@@H](CCC(N)=O)C(=O)N[C@@H](CCC(N)=O)C(=O)N[C@H](CO)Cc1ccccc1)C(C)C)C(C)C` was 42.8% [4.25 µM] (inactive)

`O=C(COc1cccc2cccnc12)Nc1ccc(C(=O)/C=C/c2ccc(Cl)cc2)cc1` has a reported growth of 47.4% (inactive)

###

- System: MCF7 breast
- assay_method_text: NCI-60 one-dose screen, 48 h
- test_settings: 10 µM unless noted
The panel holds about 83,000 compounds, 20% with a hit somewhere; the sample as a whole holds those more often. Calls of active or inactive are those of the source. The calls were made as follows: active = growth percent below 10; inactive = the rest.
Result category, one only: active, inactive

Example cases with answers are listed next.
compound	class_name
COc1ccc(CN2C(=O)/C(=C/c3nc(CO)cs3)SC2=S)cc1	inactive
COc1ccccc1/C=C/C=N/NC1=NC2C(S1)N(C)C(=O)N2c1ccccc1 (stereo not given)	inactive
COc1cc([C@H]2OC[C@H]3[C@@H]2CO[C@@H]3c2ccc(O)c(OC)c2)ccc1O	inactive
CC(=O)NC(C)(C)C(=O)N[C@@H](C)C(=O)NC(C)(C)C(=O)N[C@@H](C)C(=O)NC(C)(C)C(=O)N[C@@H](C)C(=O)N[C@@H](CCC(N)=O)C(=O)NC(C)(C)C(=O)N[C@H](C(=O)NC(C)(C)C(=O)NCC(=O)N[C@@H](CC(C)C)C(=O)NC(C)(C)C(=O)N1CCC[C@H]1C(=O)N[C@H](C(=O)NC(C)(C)C(=O)NC(C)(C)C(=O)N[C@@H](CCC(N)=O)C(=O)N[C@@H](CCC(N)=O)C(=O)N[C@H](CO)CC1CCCCC1)C(C)C)C(C)C	inactive
Oc1ccc(CSc2nnc(-c3cnccn3)o2)c2cccnc12	active

Hi, do you know how `COc1ccc(N)cc1C(=O)Nc1cccc(-c2cc(=O)c3c(OC)c(OC)c(OC)cc3o2)c1` came out in this test? inactive

Hello, I am checking results. What call was entered for `c1cncc(-c2cn3nc(-c4c[nH]c5ccccc45)sc3n2)c1` ? inactive

Per the assay record, what outcome was assigned to `COc1cc(/C=C/C(=O)c2ccc(N3CCN(C)CC3)cc2)ccc1F` ? inactive

Status in this test for `O=C(/C=C1\C=CN(CCCCF)c2ccccc21)n1ccc2ccccc21` ? inactive

Answer briefly: the call reported for `C#C[C@]1(O)CC[C@H]2[C@@H]3CC=C4c5sc(Nc6ccncc6)nc5CC[C@]4(C)[C@H]3CC[C@@]21C` in this assay. active

###

- System: SK-MEL-28 melanoma
- assay_method_text: NCI-60 one-dose screen, 48 h
- test_settings: 10 µM unless noted
About 83,000 compounds went through this panel and 20% of them were active in at least one assay; those are over-represented in the sample as a whole. Calls of active or inactive are those of the source. Rule for the calls: active = growth percent below 10; inactive = the rest.
Hi! Could you answer with just one of these? active, inactive

Known results for compounds:
> print(dat)
                                   compound         target.desc  class.name
1  O=C1[C@H]2Cc3c([nH]c4ccccc34)[C@@H](c3c(Cl)cccc3Cl)N2C(=O)CN1C1CCN(Cc2ccccc2)CC1  SK-MEL-28 melanoma    inactive
2  NC(=O)c1c(NC(=O)c2cccc(C(F)(F)F)c2F)sc2c1CCC(=O)C2  SK-MEL-28 melanoma    inactive
3  COc1ccc([C@H]2[C@H](O)C(=O)N2c2cc(OC)c(OC)c(OC)c2)cc1O  SK-MEL-28 melanoma    inactive
4  CS(=O)(=O)c1ccc2c(c1)c1c(n2C(=O)c2ccc(Cl)cc2)CCCC1  SK-MEL-28 melanoma    inactive
5  Cc1ccccc1NC1CC(=O)N(c2ccc(Cl)cc2Cl)C1=O (stereo not drawn)  SK-MEL-28 melanoma    inactive
6  C#C[C@]1(O)CC[C@H]2[C@@H]3CC=C4c5sc(Nc6ccc(OC)nc6)nc5CC[C@]4(C)[C@H]3CC[C@@]21C  SK-MEL-28 melanoma    inactive

Identify the outcome logged in this assay for the compound shown: `COC1=C(c2ccccc2)C(=O)C(OC)=C(c2ccccc2)C1=O` inactive

What did the test return for `Cc1cn(-c2cc(NC(=O)c3cncc(C#Cc4cnc5ccc(OCCCS(C)(=O)=O)nn45)c3)cc(C(F)(F)F)c2)cn1` ? inactive

Each compound tested received a call. Report the one for `C#C[C@]1(O)CC[C@H]2[C@@H]3CC=C4c5sc(Nc6ccncc6)nc5CC[C@]4(C)[C@H]3CC[C@@]21C` . active

Recorded call for `Oc1ccc(CSc2nnc(-c3cnccn3)n2-c2ccccc2)c2cccnc12` ? inactive

Record request — test call for `Cc1ccc(/C=C/CC(=O)Nc2ccc(C(=O)Nc3ccc(F)cc3N)nc2)cn1` inactive

How was `O=C1[C@H]2Cc3c([nH]c4ccccc34)[C@H](c3ccc(Cl)cc3)N2C(=O)CN1C1CCN(Cc2c(Cl)cccc2Cl)CC1` classified in this test? inactive

// return assay outcome for `Oc1ccccc1/C=N/Nc1nc(N/N=C/c2ccccc2O)nc(N2CCOCC2)n1` inactive

Which result was noted for this compound in the test: `COc1cc(/C=N/Nc2ccnc3cc(Cl)ccc23)cc(OC)c1O` inactive

Could you check what this test reported for `CCn1c2ccc(/C=N/OCCCN(C)C)cc2c2cc(/C=N/OCCCN(C)C)ccc21` ? active

Identify the outcome logged in this assay for the compound shown: `C=C(C)[C@@H]1CC[C@]2(C)[C@H](CC=C3[C@@H]4CC(C)(C)CC[C@]4(C(=O)NCC#CCN4CCN(C)CC4)CC[C@]32C)[C@@]1(C)CCC#N` inactive

Per the records of this test, what outcome belongs to `COc1ccc(C(=O)c2c(N)c(C#N)cn2-c2cccc(OC)c2)cc1` ? inactive

Given `O=C(NNc1nc2cc(F)c(F)cc2n2cccc12)c1cccnn1` , state the outcome it received in this test. inactive
